Recorded values, source PubChem BioAssay.

targetEntity: Nuclear receptor coactivator 2 (Homo sapiens) (UniProt Q15596)
Sequence (Q15596 whole entry, looked up): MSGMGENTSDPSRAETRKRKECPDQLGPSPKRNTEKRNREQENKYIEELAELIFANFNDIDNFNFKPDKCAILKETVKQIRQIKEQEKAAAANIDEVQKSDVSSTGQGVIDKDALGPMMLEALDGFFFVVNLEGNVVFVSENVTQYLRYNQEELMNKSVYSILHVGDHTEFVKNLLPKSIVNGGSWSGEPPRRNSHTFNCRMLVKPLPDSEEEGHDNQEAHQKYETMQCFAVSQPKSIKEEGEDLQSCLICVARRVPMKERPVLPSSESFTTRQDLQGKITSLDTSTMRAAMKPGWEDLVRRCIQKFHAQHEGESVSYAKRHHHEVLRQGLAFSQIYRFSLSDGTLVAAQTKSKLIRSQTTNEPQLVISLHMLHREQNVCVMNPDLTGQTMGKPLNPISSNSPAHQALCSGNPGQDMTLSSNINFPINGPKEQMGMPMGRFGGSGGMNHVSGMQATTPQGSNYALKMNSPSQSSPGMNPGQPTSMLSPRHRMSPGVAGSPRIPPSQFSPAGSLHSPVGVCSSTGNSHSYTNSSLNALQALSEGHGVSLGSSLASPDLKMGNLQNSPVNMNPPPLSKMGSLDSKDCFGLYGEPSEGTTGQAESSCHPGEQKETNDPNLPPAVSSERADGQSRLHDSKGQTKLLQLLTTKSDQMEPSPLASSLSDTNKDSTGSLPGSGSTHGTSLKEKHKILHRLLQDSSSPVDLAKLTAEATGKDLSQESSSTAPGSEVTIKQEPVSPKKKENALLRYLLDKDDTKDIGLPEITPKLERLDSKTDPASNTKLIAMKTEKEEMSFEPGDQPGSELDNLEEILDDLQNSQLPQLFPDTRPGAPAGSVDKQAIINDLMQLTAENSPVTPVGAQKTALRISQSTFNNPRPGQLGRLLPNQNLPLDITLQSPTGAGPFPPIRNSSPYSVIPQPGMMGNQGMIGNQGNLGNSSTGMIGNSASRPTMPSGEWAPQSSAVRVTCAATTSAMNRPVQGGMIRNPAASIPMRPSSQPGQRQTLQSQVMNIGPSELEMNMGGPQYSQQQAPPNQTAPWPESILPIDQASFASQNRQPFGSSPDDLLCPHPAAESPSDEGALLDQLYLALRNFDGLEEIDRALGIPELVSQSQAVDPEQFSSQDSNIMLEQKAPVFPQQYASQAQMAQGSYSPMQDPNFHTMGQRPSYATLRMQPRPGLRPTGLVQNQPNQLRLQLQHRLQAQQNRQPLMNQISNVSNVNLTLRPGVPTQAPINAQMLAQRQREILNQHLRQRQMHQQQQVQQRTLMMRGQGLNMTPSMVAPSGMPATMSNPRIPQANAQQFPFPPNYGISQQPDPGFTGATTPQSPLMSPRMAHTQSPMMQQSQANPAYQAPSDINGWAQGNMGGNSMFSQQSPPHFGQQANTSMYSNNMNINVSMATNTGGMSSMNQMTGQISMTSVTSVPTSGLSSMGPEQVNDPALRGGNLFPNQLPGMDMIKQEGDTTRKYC
experimentalDetails: SRC2 coactivator transcriptional activity inhibitors, confirmation, cell-based, luminescence, HEK293, triplicate (AID 652008);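 also: 0% = DMSO-treated cells and 100% = Gossypol at 36 µM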
appliedConditions: HEK293 GAL4-SRC2 luciferase reporter, at 8.9 µM
Active and inactive are the calls of the source.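 The calls were made as follows: active = mean inhibition above 46.5%, the solvent-only control mean plus 3 SD; inactive = the rest.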
Classes used: 1 = active, 0 = inactive

1) OC[C@@H]1CN(Cc2ccc(-c3ccccc3)cc2)C[C@H](n2cnc3c(NCc4ccc(F)cc4)ncnc32)O1
0
2) Cc1ccc(O)c(/C=N/NC(=O)Cc2ccc(Cl)cc2)c1
0
3) Cc1ccccc1CS(=O)(=O)c1ccc(C(=O)N2CCOCC2)cc1[N+](=O)[O-]
0
4) Cc1cc(Sc2nnc(/N=C/N(C)C)s2)c2ccccc2n1
0
5) COc1ccc(-c2csc3ncnc(NCCO)c23)cc1
1
